# testTarget: T1, AFP158/HLA-A*02:01 complex (human)
# T1 construct: flowed as analyte in SPR
# assaySummary: SPR, crude scFv captured, pMHC analyte;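 further: pMHC analyte injected at three concentrations, association phase of one hundred seconds, then running buffer for dissociation, rates fitted from both curves, KD derived from the rates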

| binder | koff, s⁻¹ |
| --- | --- |
| AS170036 VL1VH1-57K98Q (scFv, also called 12-AS170036 VL1VH1-57K98Q) scFv: QSALTQPRSVSGSPGQSVTISCAGTSSDVGSENYVSWYQQHPGKAPKLMIYQVNKRASGVPDRFSGSKSGNTASLTISGLQAEDEADYYCASYRSSDQNIVFGGGTKLTVLGGGGSGGGGSGGGGSEVQLVESGGGLVQPGGSLRLSCAASGFTFSSYAMSWVRQAPGKGLEWVSTINSGTGKPYYADSVKGRFTISRDNSKNTLYLQMNSLRAEDTAVYYCAKNFFDGSWFLGPPAMDYWGQGTLVTVSSHHHHHH | 0.0025 |
| AS170036 VL1VH1-57M98I (scFv, also called 14-AS170036 VL1VH1-57M98I) scFv: QSALTQPRSVSGSPGQSVTISCAGTSSDVGSENYVSWYQQHPGKAPKLMIYQVNKRASGVPDRFSGSKSGNTASLTISGLQAEDEADYYCASYRSSDINIVFGGGTKLTVLGGGGSGGGGSGGGGSEVQLVESGGGLVQPGGSLRLSCAASGFTFSSYAMSWVRQAPGKGLEWVSTINSGTGMPYYADSVKGRFTISRDNSKNTLYLQMNSLRAEDTAVYYCAKNFFDGSWFLGPPAMDYWGQGTLVTVSSHHHHHH | 0.013 |
| AS170036 VL1VH1-57K108D (scFv, also called 26-AS170036 VL1VH1-57K108D) scFv: QSALTQPRSVSGSPGQSVTISCAGTSSDVGSENYVSWYQQHPGKAPKLMIYQVNKRASGVPDRFSGSKSGNTASLTISGLQAEDEADYYCASYRSSDHNIVFGGGTKLTVLGGGGSGGGGSGGGGSEVQLVESGGGLVQPGGSLRLSCAASGFTFSSYAMSWVRQAPGKGLEWVSTINSGTGKPYYADSVKGRFTISRDNSKNTLYLQMNSLRAEDTAVYYCAKNFFDGSWFLDPPAMDYWGQGTLVTVSSHHHHHH | 0.0022 |

Values from patent US20240279318A1
